Data origin, for the record: patent US8546343B2

Tested on: M. smegmatis ΔrrnB 1491C (16S rRNA position 1491 C, eukaryotic mitochondrial ribosome)
protocol: MIC, recombinant M. smegmatis with mutant ribosomes 1491C
Format: cell-based, Mycobacterium smegmatis
experimental parameters: M. smegmatis ΔrrnB 1491C mutant ribosomes; 72 h at 37° C.
Known minimal inhibitory concentrations ΔrrnB 1491C of a selection of compounds
assay endpoint: minimal inhibitory concentrations ΔrrnB 1491C (µg/mL)

* NC[C@@H]1O[C@H](O[C@H]2[C@@H](O)[C@H](O[C@@H]3[C@@H](O)[C@H](N)C[C@H](N)[C@H]3O[C@H]3O[C@@H]4CO[C@@H](c5ccc(-c6ccccc6)cc5)O[C@H]4[C@H](O)[C@H]3N)O[C@@H]2CO)[C@H](N)[C@@H](O)[C@@H]1O | 64
* NC[C@@H]1O[C@H](O[C@H]2[C@@H](O)[C@H](O[C@@H]3[C@@H](O)[C@H](N)C[C@H](N)[C@H]3O[C@H]3O[C@@H]4CO[C@@H](c5cccc6ccccc56)O[C@H]4[C@H](O)[C@H]3N)O[C@@H]2CO)[C@H](N)[C@@H](O)[C@@H]1O | 256

###

Test system: M. smegmatis ΔrrnB 1491C (16S rRNA position 1491 C, eukaryotic mitochondrial ribosome)
protocol: MIC, recombinant M. smegmatis with mutant ribosomes 1491C
Assay type: cell-based, Mycobacterium smegmatis
experimental parameters: M. smegmatis ΔrrnB 1491C mutant ribosomes; 72 h at 37° C.
assay endpoint: minimal inhibitory concentrations ΔrrnB 1491C

- NC[C@@H]1O[C@H](O[C@H]2[C@@H](O)[C@H](O[C@@H]3[C@@H](O)[C@H](N)C[C@H](N)[C@H]3O[C@H]3O[C@@H]4CO[C@@H](c5ccccc5[N+](=O)[O-])O[C@H]4[C@H](O)[C@H]3N)O[C@@H]2CO)[C@H](N)[C@@H](O)[C@@H]1O: >512 µg/mL
- COc1ccc([C@@H]2OC[C@H]3O[C@H](O[C@H]4[C@H](O[C@@H]5O[C@H](CO)[C@@H](O[C@H]6O[C@@H](CN)[C@@H](O)[C@H](O)[C@H]6N)[C@H]5O)[C@@H](O)[C@H](N)C[C@@H]4N)[C@H](N)[C@@H](O)[C@@H]3O2)cc1: >512 µg/mL
- COc1cc([C@@H]2OC[C@H]3O[C@H](O[C@H]4[C@H](O[C@@H]5O[C@H](CO)[C@@H](O[C@H]6O[C@@H](CN)[C@@H](O)[C@H](O)[C@H]6N)[C@H]5O)[C@@H](O)[C@H](N)C[C@@H]4N)[C@H](N)[C@@H](O)[C@@H]3O2)cc(OC)c1OC: >512 µg/mL

###

Known minimal inhibitory concentrations ΔrrnB 1491A of a selection of compounds
Test system: M. smegmatis ΔrrnB 1491A (16S rRNA position 1491 A, eukaryotic cytosolic ribosomes)
protocol: MIC, recombinant M. smegmatis with mutant ribosomes 1491A
Assay type: cell-based, Mycobacterium smegmatis
experimental parameters: M. smegmatis ΔrrnB 1491A mutant ribosomes; 72 h at 37° C.
assay endpoint: minimal inhibitory concentrations ΔrrnB 1491A (µg/mL)

* NC[C@@H]1O[C@H](O[C@H]2[C@@H](O)[C@H](O[C@@H]3[C@@H](O)[C@H](N)C[C@H](N)[C@H]3O[C@H]3O[C@H](CO)[C@@H](O)[C@H](O)[C@H]3N)O[C@@H]2CO)[C@H](N)[C@@H](O)[C@@H]1O [Paromomycin, paromomycin, reference compound] | 64
* NC[C@@H]1O[C@H](O[C@H]2[C@@H](O)[C@H](O[C@@H]3[C@@H](O)[C@H](N)C[C@H](N)[C@H]3O[C@H]3O[C@@H]4CO[C@@H](c5cccc(Cl)c5)O[C@H]4[C@H](O)[C@H]3N)O[C@@H]2CO)[C@H](N)[C@@H](O)[C@@H]1O [Compound 5.15, 4′,6′-O-m-chlorobenzylideneparomomycin] | 512
* CN(C)c1ccc([C@@H]2OC[C@H]3O[C@H](O[C@H]4[C@H](O[C@@H]5O[C@H](CO)[C@@H](O[C@H]6O[C@@H](CN)[C@@H](O)[C@H](O)[C@H]6N)[C@H]5O)[C@@H](O)[C@H](N)C[C@@H]4N)[C@H](N)[C@@H](O)[C@@H]3O2)cc1 [Compound 5.18] | 256

###

Test system: M. smegmatis ΔrrnB 1491A (16S rRNA position 1491 A, eukaryotic cytosolic ribosomes)
protocol: MIC, recombinant M. smegmatis with mutant ribosomes 1491A
Assay type: cell-based, Mycobacterium smegmatis
experimental parameters: M. smegmatis ΔrrnB 1491A mutant ribosomes; 72 h at 37° C.
Text: The strain used for introduction/selection of mutational alterations was a genetically modified derivative of Mycobacterium smegmatis carrying a single functional chromosomal rRNA operon (Sander et al. Mol. Microbiol. 1996, 22: 841-848). This strain, termed M. smegmatis rrn^−, allowed for the selection of mutational rRNA gene alterations using a plasmid carrying the rRNA gene with the respective mutational alteration.) […]
assay endpoint: minimal inhibitory concentrations ΔrrnB 1491A (µg/mL)

- NC[C@@H]1O[C@H](O[C@H]2[C@@H](O)[C@H](O[C@@H]3[C@@H](O)[C@H](N)C[C@H](N)[C@H]3O[C@H]3O[C@@H]4CO[C@@H](c5ccc(C(F)(F)F)cc5)O[C@H]4[C@H](O)[C@H]3N)O[C@@H]2CO)[C@H](N)[C@@H](O)[C@@H]1O [Compound 5.17]: 512
- NC[C@@H]1O[C@H](O[C@H]2[C@@H](O)[C@H](O[C@@H]3[C@@H](O)[C@H](N)C[C@H](N)[C@H]3O[C@H]3O[C@@H]4CO[C@@H](Cc5ccccc5)O[C@H]4[C@H](O)[C@H]3N)O[C@@H]2CO)[C@H](N)[C@@H](O)[C@@H]1O [Compound 5.24]: 256
- NC[C@@H]1O[C@H](O[C@H]2[C@@H](O)[C@H](O[C@@H]3[C@@H](O)[C@H](N)C[C@H](N)[C@H]3O[C@H]3O[C@H](CN)[C@@H](O)[C@H](O)[C@H]3N)O[C@@H]2CO)[C@H](N)[C@@H](O)[C@@H]1O [Neomycin B, reference compound]: 4

###

Test system: M. smegmatis ΔrrnB 1491C (16S rRNA position 1491 C, eukaryotic mitochondrial ribosome)
protocol: MIC, recombinant M. smegmatis with mutant ribosomes 1491C
Format: cell-based, Mycobacterium smegmatis
experimental parameters: M. smegmatis ΔrrnB 1491C mutant ribosomes; 72 h at 37° C.
assay endpoint: minimal inhibitory concentrations ΔrrnB 1491C

* NC[C@@H]1O[C@H](O[C@H]2[C@@H](O)[C@H](O[C@@H]3[C@@H](O)[C@H](N)C[C@H](N)[C@H]3O[C@H]3O[C@@H]4CO[C@@H](c5ccc(C(F)(F)F)cc5)O[C@H]4[C@H](O)[C@H]3N)O[C@@H]2CO)[C@H](N)[C@@H](O)[C@@H]1O | 512 µg/mL
* NC[C@@H]1O[C@H](O[C@H]2[C@@H](O)[C@H](O[C@@H]3[C@@H](O)[C@H](N)C[C@H](N)[C@H]3O[C@H]3O[C@@H]4CO[C@@H](c5cc(Cl)cc(Cl)c5)O[C@H]4[C@H](O)[C@H]3N)O[C@@H]2CO)[C@H](N)[C@@H](O)[C@@H]1O | 128 µg/mL
* NC[C@@H]1O[C@H](O[C@H]2[C@@H](O)[C@H](O[C@@H]3[C@@H](O)[C@H](N)C[C@H](N)[C@H]3O[C@H]3O[C@@H]4CO[C@@H](c5cccc(Cl)c5)O[C@H]4[C@H](O)[C@H]3N)O[C@@H]2CO)[C@H](N)[C@@H](O)[C@@H]1O | 512 µg/mL
* NC[C@@H]1O[C@H](O[C@H]2[C@@H](O)[C@H](O[C@@H]3[C@@H](O)[C@H](N)C[C@H](N)[C@H]3O[C@H]3O[C@@H]4CO[C@@H](C5CCCCC5)O[C@H]4[C@H](O)[C@H]3N)O[C@@H]2CO)[C@H](N)[C@@H](O)[C@@H]1O | >512 µg/mL
* NC[C@@H]1O[C@H](O[C@H]2[C@@H](O)[C@H](O[C@@H]3[C@@H](O)[C@H](N)C[C@H](N)[C@H]3O[C@H]3O[C@H](CO)[C@@H](OCOCc4ccccc4)[C@H](O)[C@H]3N)O[C@@H]2CO)[C@H](N)[C@@H](O)[C@@H]1O [Compound 19d, 4′-Benzyloxymethylparomomycin] | >512 µg/mL
* NC[C@@H]1O[C@H](O[C@H]2[C@@H](O)[C@H](O[C@@H]3[C@@H](O)[C@H](N)C[C@H](N)[C@H]3O[C@H]3O[C@@H]4COC(c5cccs5)O[C@H]4[C@H](O)[C@H]3N)O[C@@H]2CO)[C@H](N)[C@@H](O)[C@@H]1O (some centres unmarked) | >512 µg/mL
* CC1OC[C@H]2O[C@H](O[C@H]3[C@H](O[C@@H]4O[C@H](CO)[C@@H](O[C@H]5O[C@@H](CN)[C@@H](O)[C@H](O)[C@H]5N)[C@H]4O)[C@@H](O)[C@H](N)C[C@@H]3N)[C@H](N)[C@@H](O)[C@@H]2O1 (some centres unmarked) | >512 µg/mL
* NC[C@@H]1O[C@H](O[C@H]2[C@@H](O)[C@H](O[C@@H]3[C@@H](O)[C@H](N)C[C@H](N)[C@H]3O[C@H]3O[C@@H]4COC(c5ccco5)O[C@H]4[C@H](O)[C@H]3N)O[C@@H]2CO)[C@H](N)[C@@H](O)[C@@H]1O (some centres unmarked) | >512 µg/mL
* NCC1OC(OC2C(CO)OC(OC3C(O)C(N)CC(N)C3OC3OC(COCc4ccccc4)C(O)C(O)C3N)C2O)C(N)C(O)C1O (centres unmarked) | >512 µg/mL
* CC(=O)O.CC(=O)O.CC(=O)O.NC[C@@H]1O[C@H](O[C@H]2[C@@H](O)[C@H](O[C@@H]3[C@@H](O)[C@H](N)C[C@H](N)[C@H]3O[C@H]3O[C@@H]4COC(c5cccc([N+](=O)[O-])c5)O[C@H]4[C@H](O)[C@H]3N)O[C@@H]2CO)[C@H](N)[C@@H](O)[C@@H]1O (some centres unmarked) | >512 µg/mL
* COc1ccc(OC)c(C2OC[C@H]3O[C@H](O[C@H]4[C@H](O[C@@H]5O[C@H](CO)[C@@H](O[C@H]6O[C@@H](CN)[C@@H](O)[C@H](O)[C@H]6N)[C@H]5O)[C@@H](O)[C@H](N)C[C@@H]4N)[C@H](N)[C@@H](O)[C@@H]3O2)c1 (some centres unmarked) | >512 µg/mL
* NC[C@@H]1O[C@H](O[C@H]2[C@@H](O)[C@H](O[C@@H]3[C@@H](O)[C@H](N)C[C@H](N)[C@H]3O[C@H]3O[C@@H]4CO[C@@H](Cc5ccccc5)O[C@H]4[C@H](O)[C@H]3N)O[C@@H]2CO)[C@H](N)[C@@H](O)[C@@H]1O | 128 to 256 µg/mL
* NC[C@@H]1O[C@H](O[C@H]2[C@@H](O)[C@H](O[C@@H]3[C@@H](O)[C@H](N)C[C@H](N)[C@H]3O[C@H]3O[C@@H]4CO[C@@H](c5ccc6ccccc6c5)O[C@H]4[C@H](O)[C@H]3N)O[C@@H]2CO)[C@H](N)[C@@H](O)[C@@H]1O | 512 µg/mL
